test system: LNCaP xenografts; experiment: Ex vivo biodistribution and blocking studies in mice bearing LNCaP xenografts; conditions: 1 h blocked (coinjection of DCFPyL 0.5 mg)
measure: bone uptake (%ID/g)
Answer format: numeric, %ID/g implied, no suffix.

Report value only: bone uptake, LNCaP xenografts, C[N+](C)(Cc1cn(Cc2ccc(C(=O)NCCCC[C@H](NC(=O)N[C@@H](CCC(=O)O)C(=O)O)C(=O)O)cn2)nn1)C[B-](F)(F)F [^18F-3]
0.16

Report value only: bone uptake, LNCaP xenografts, C[N+](C)(Cc1cn(CC(=O)N[C@@H](CCC(=O)O)C(=O)NCCCC[C@H](NC(=O)[C@H](CCC(=O)O)NC(=O)Cn2cc(C[N+](C)(C)C[B-](F)(F)F)nn2)C(=O)NC[C@H]2CC[C@H](C(=O)N[C@@H](Cc3ccc4ccccc4c3)C(=O)NCCCC[C@H](NC(=O)N[C@@H](CCC(=O)O)C(=O)O)C(=O)O)CC2)nn1)C[B-](F)(F)F [^18F-8]
0.15
